- measured on: CYP2C9 (Homo sapiens, UniProt P11712)
- Construct: purchased Invitrogen, Madison, WI, USA
- Sequence (P11712 whole entry): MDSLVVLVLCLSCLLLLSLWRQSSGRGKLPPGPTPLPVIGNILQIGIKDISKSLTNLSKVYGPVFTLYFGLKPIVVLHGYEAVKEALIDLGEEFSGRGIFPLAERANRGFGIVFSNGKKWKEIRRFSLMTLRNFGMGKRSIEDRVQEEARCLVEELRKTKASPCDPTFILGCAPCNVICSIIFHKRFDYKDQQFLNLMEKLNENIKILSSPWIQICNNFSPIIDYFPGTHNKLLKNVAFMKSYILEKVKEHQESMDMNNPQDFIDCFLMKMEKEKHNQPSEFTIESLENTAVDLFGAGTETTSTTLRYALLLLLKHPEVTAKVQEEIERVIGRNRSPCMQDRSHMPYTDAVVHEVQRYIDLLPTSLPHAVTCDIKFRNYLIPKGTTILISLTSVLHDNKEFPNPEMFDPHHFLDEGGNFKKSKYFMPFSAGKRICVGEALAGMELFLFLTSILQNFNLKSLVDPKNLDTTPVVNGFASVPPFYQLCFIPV
- experiment: CYP inhibition assay (Vivid CYP450 screening kit)
- Format: in vitro ADME
- test parameters: 10 μM compound
measure: CYP450 (% remaining Activity at 10 μM) CYP2C9 (%)
Report as a plain number; the unit % is understood.

Use the examples below as a reference point.
molecule: CCOc1ccc(-n2c(SCC(=O)N(CC)Cc3ccccc3)nc3sc4c(c3c2=O)CCN(C(C)=O)C4)cc1
unit text: %
measurement: 32.8

molecule: CCOc1ccc(-n2c(SCC(=O)N(C)Cc3ccccc3)nc3sc4c(c3c2=O)CCN(C)C4)cc1
unit text: %
measurement: 66.4

molecule: CCOc1ccc(-n2c(SCC(=O)NCc3ccc(C)cc3)nc3sc4c(c3c2=O)CCN(C(C)=O)C4)cc1
unit text: %
measurement: 50.4

molecule: CCOc1ccc(-n2c(SCC(=O)N(CC)Cc3ccccc3)nc3sc4c(c3c2=O)CCN(C)C4)cc1
unit text: %
measurement: 105.8

molecule: CCOc1ccc(-n2c(SCC(=O)NCc3ccccc3)nc3sc4c(c3c2=O)CCN(C(C)=O)C4)cc1
unit text: %
measurement: 51.1

query: Return reported CYP450 (% remaining Activity at 10 μM) CYP2C9; argument: "CCCN(CCC)C(=O)CSc1nc2sc3c(c2c(=O)n1-c1ccc(OCC)cc1)CCN(C)C3"
result: 44.5

query: Same lookup for "CCOc1ccc(-n2c(SCC(=O)N3CCC(Cc4ccccc4)CC3)nc3sc4c(c3c2=O)CCN(C(C)=O)C4)cc1" , please.
result: 15.6

query: Same lookup for "CCOc1ccc(-n2c(SCC(=O)N3CCN(Cc4ccccc4)CC3)nc3sc4c(c3c2=O)CCN(C(C)=O)C4)cc1" , please.
result: 14.9

query: Same lookup for "CCOc1ccc(-n2c(SCC(=O)Nc3ccc(OC)c(OC)c3)nc3sc4c(c3c2=O)CCN(C(C)=O)C4)cc1" , please.
result: 72.5

query: Same lookup for "CCOc1ccc(-n2c(SCC(=O)N3CCN(c4ccccc4)CC3)nc3sc4c(c3c2=O)CCN(C(C)=O)C4)cc1" , please.
result: 84.4

query: Same lookup for "CCOc1ccc(-n2c(SCC(=O)N(C)Cc3ccccc3)nc3sc4c(c3c2=O)CCN(C(C)=O)C4)cc1" , please.
result: 30.9

query: Same lookup for "CCOc1ccc(-n2c(SCC(=O)Nc3ccc(OC)c(OC)c3)nc3sc4c(c3c2=O)CCN(C)C4)cc1" , please.
result: 33.7

query: Same lookup for "CCOc1ccc(-n2c(SCC(=O)NC3CCN(C)CC3)nc3sc4c(c3c2=O)CCN(C(C)=O)C4)cc1" , please.
result: 93.0

query: Same lookup for "CCCCN(CCCC)C(=O)CSc1nc2sc3c(c2c(=O)n1-c1ccc(OCC)cc1)CCN(C(C)=O)C3" , please.
result: 33.6

query: Same lookup for "CCOc1ccc(-n2c(SCC(=O)NCc3ccc(Cl)cc3)nc3sc4c(c3c2=O)CCN(C(C)=O)C4)cc1" , please.
result: 32.9

query: Same lookup for "CCOc1ccc(-n2c(SCC(=O)Nc3ccc(C)cc3)nc3sc4c(c3c2=O)CCN(C)C4)cc1" , please.
result: 43.0

query: Same lookup for "CCOc1ccc(-n2c(SCC(=O)NCc3ccc(Cl)cc3)nc3sc4c(c3c2=O)CCN(C)C4)cc1" , please.
result: 86.9

----------
- measured on: recombinant human TSPO (Homo sapiens, UniProt P30536)
- Sequence (P30536 whole entry): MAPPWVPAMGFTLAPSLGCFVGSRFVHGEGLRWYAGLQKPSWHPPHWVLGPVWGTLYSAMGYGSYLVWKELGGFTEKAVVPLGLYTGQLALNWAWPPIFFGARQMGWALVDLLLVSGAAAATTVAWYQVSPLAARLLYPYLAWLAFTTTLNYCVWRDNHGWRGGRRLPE
- experiment: Surface plasmon resonance (SPR) binding affinity
- test parameters: mean ± SD of three measurements
measure: pKd
pKd field: float, defined as -log10 of concentration (mol/L).

Use the examples below as a reference point.
molecule: CCOc1ccc(-n2c(SCC(=O)Nc3ccc(OC)c(OC)c3)nc3sc4c(c3c2=O)CCN(C(C)=O)C4)cc1
measured on: recombinant human TSPO (Homo sapiens, UniProt P30536)
measurement: 6.20
--
molecule: CCOc1ccc(-n2c(SCC(=O)N3CCN(c4ccccc4)CC3)nc3sc4c(c3c2=O)CCN(C(C)=O)C4)cc1
measured on: recombinant human TSPO (Homo sapiens, UniProt P30536)
measurement: 5.56

Now consider a different compound.
query: What is its pKd for recombinant human TSPO (Homo sapiens, UniProt P30536)? Entry: "CCOc1ccc(-n2c(SCC(=O)NCc3ccccc3)nc3sc4c(c3c2=O)CCN(C(C)=O)C4)cc1"
result: 5.90

----------
- experiment: Pharmacokinetic study in SD male rats
- Assay type: in vivo, rat
- test parameters: Sprague-Dawley, rat, plasma, oral, 10 mg/kg, n = 5, Table S3
measure: AUC(0-inf) (ng·h/mL)
Report as a plain number; the unit ng·h/mL is understood.

query: Return reported AUC(0-inf); argument: "CCOc1ccc(-n2c(SCC(=O)Nc3ccc(OC)c(OC)c3)nc3sc4c(c3c2=O)CCN(C(C)=O)C4)cc1"
result: 2250

----------
- measured on: hERG channel (Homo sapiens, UniProt Q12809)
- Construct: host or cells: CHO-K1 Tet-On hERG cells
- Sequence (Q12809 whole entry): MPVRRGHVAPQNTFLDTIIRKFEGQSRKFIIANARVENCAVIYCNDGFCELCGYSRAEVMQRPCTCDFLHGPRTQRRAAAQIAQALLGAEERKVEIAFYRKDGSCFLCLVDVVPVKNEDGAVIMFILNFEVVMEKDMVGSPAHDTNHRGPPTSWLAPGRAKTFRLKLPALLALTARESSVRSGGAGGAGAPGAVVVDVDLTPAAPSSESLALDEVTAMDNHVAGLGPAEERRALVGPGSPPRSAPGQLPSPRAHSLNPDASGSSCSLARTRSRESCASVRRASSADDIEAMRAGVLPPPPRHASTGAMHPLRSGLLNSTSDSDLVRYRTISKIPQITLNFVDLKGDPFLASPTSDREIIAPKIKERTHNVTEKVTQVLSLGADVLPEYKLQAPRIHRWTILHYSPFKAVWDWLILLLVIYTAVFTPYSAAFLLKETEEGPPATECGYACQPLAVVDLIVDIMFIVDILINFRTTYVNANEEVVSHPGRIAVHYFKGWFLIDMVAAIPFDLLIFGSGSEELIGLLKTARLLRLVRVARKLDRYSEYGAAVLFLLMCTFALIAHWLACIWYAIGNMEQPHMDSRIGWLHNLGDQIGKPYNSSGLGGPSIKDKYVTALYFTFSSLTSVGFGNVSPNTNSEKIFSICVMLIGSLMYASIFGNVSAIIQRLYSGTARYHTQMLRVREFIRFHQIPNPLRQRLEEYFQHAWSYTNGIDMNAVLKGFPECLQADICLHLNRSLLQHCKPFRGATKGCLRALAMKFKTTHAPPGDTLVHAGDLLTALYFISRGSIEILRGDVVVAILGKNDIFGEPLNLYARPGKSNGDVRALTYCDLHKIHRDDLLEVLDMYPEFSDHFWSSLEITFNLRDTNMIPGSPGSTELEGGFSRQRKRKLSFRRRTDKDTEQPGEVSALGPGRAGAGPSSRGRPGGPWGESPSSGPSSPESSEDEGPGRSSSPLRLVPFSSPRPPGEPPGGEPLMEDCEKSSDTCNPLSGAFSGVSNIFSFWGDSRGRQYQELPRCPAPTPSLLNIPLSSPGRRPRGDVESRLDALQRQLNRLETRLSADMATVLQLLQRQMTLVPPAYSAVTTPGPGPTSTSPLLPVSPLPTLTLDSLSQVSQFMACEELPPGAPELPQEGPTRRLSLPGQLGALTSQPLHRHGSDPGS
- experiment: hERG inhibition assay (automated patch-clamp, CHO-K1 Tet-On hERG cells)
- Format: cell-based
- test parameters: authors' grading of Table 6
- Procedure: For automated patch-clamp NPC-16 Patchliner (Nanion Technologies, München, Germany) recordings, CHO-K1 Tet-On hERG cells (IonGate Biosciences GmbH, Frankfurt, Germany) were plated into 100-mm cell culture dishes. […] Whole-cell recordings were analysed using the Patchmaster/Fitmaster (HEKA Elektronik, Lambrecht/Pfalz, Germany), IGOR Pro (WaveMetrics Inc., Portland, OR, USA), and the GraphPad Prism 4.0 (GraphPad Software, Inc., La Jolla, CA, USA) software.
measure: hERG inhibition (in words)

compound: CCOc1ccc(-n2c(SCC(=O)NC3CCN(C)CC3)nc3sc4c(c3c2=O)CCN(C(C)=O)C4)cc1 [Compound 30]
hERG inhibition (in words): low hERG inhibition
//
compound: CCOc1ccc(-n2c(SCC(=O)NCc3ccccc3)nc3sc4c(c3c2=O)CCN(C(C)=O)C4)cc1 [Compound 31]
hERG inhibition (in words): low hERG inhibition
//
compound: CCOc1ccc(-n2c(SCC(=O)NCc3ccccc3)nc3sc4c(c3c2=O)CCN(C)C4)cc1 [Compound 49]
hERG inhibition (in words): low hERG inhibition
//
compound: CCOc1ccc(-n2c(SCC(=O)N(C)Cc3ccccc3)nc3sc4c(c3c2=O)CCN(C)C4)cc1 [Compound 50]
hERG inhibition (in words): low hERG inhibition

Now consider a different compound.
query: Return reported hERG inhibition (in words); argument: CCOc1ccc(-n2c(SCC(=O)N3CCN(c4ccccc4)CC3)nc3sc4c(c3c2=O)CCN(C(C)=O)C4)cc1 [Compound 44]
result: low hERG inhibition

----------
- experiment: Pharmacokinetic study in SD male rats
- Assay type: in vivo, rat
- test parameters: Sprague-Dawley, rat, plasma, intravenous, 10 mg/kg, n = 5, Table S3
measure: AUC(0-t)
Kindly format the answer as number then unit.

query: Return reported AUC(0-t); argument: "CCOc1ccc(-n2c(SCC(=O)Nc3ccc(OC)c(OC)c3)nc3sc4c(c3c2=O)CCN(C(C)=O)C4)cc1"
result: 6000 ng·h/mL

----------
- experiment: Pharmacokinetic study in SD male rats
- Format: in vivo, rat
- test parameters: Sprague-Dawley, rat, plasma, intravenous, 10 mg/kg, n = 5, Table S3, read-out: Vss
measure: Vd (L/kg)
Report as a plain number; the unit L/kg is understood.

query: Return reported Vd; argument: CCOc1ccc(-n2c(SCC(=O)Nc3ccc(OC)c(OC)c3)nc3sc4c(c3c2=O)CCN(C(C)=O)C4)cc1 [Compound 7]
result: 1.74

----------
In this section, each of the compounds is paired with its reported Vd.
- experiment: Pharmacokinetic study in SD male rats
- Format: in vivo, rat
- test parameters: Sprague-Dawley, rat, plasma, intravenous, 10 mg/kg, n = 3, read-out: Vss
Report as a plain number; the unit L/kg is understood.

compound: CCOc1ccc(-n2c(SCC(=O)N3CCN(c4ccccc4)CC3)nc3sc4c(c3c2=O)CCN(C(C)=O)C4)cc1 [Compound 44]
Vd [L/kg]: 0.785

query: Return reported Vd; argument: CCOc1ccc(-n2c(SCC(=O)NCc3ccccc3)nc3sc4c(c3c2=O)CCN(C(C)=O)C4)cc1 [Compound 31]
result: 7.74

----------
In this section, each of the compounds is paired with its reported CYP450 (% remaining Activity at 10 μM) CYP2C19.
- measured on: CYP2C19 (Homo sapiens)
- Construct: purchased Invitrogen, Madison, WI, USA
- Sequence (P33261 whole entry): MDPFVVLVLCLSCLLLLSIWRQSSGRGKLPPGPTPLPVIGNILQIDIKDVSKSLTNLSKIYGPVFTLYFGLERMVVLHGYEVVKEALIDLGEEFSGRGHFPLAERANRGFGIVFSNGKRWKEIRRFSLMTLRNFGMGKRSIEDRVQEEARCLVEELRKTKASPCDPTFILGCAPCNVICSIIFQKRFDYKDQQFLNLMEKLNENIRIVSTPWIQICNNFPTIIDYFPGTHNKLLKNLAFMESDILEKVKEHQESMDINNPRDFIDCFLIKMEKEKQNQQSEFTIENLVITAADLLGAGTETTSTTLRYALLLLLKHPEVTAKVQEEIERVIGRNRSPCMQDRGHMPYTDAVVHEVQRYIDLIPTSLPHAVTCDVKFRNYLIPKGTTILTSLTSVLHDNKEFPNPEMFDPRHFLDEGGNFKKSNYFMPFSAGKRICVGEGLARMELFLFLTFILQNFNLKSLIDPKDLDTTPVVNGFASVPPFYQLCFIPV
- experiment: CYP inhibition assay (Vivid CYP450 screening kit)
- Format: in vitro ADME
- test parameters: 10 μM compound
Report as a plain number; the unit % is understood.

Use the examples below as a reference point.
molecule: CCOc1ccc(-n2c(SCC(=O)N3CCC(c4ccccc4)CC3)nc3sc4c(c3c2=O)CCN(C(C)=O)C4)cc1
measurement: 16.5

molecule: CCOc1ccc(-n2c(SCC(=O)Nc3ccc(C)cc3)nc3sc4c(c3c2=O)CCN(C)C4)cc1
measurement: 31.2

molecule: CCOc1ccc(-n2c(SCC(=O)N(CC)Cc3ccccc3)nc3sc4c(c3c2=O)CCN(C)C4)cc1
measurement: 52.5

molecule: CCOc1ccc(-n2c(SCC(=O)NCc3ccc(Cl)cc3)nc3sc4c(c3c2=O)CCN(C(C)=O)C4)cc1
measurement: 56.8

query: Return reported CYP450 (% remaining Activity at 10 μM) CYP2C19; argument: "CCOc1ccc(-n2c(SCC(=O)N(CC)Cc3ccccc3)nc3sc4c(c3c2=O)CCN(C(C)=O)C4)cc1"
result: 35.7

query: Same lookup for "CCOc1ccc(-n2c(SCC(=O)NCc3ccccc3)nc3sc4c(c3c2=O)CCN(C)C4)cc1" , please.
result: 90.0

query: Same lookup for "CCCN(CCC)C(=O)CSc1nc2sc3c(c2c(=O)n1-c1ccc(OCC)cc1)CCN(C(C)=O)C3" , please.
result: 64.0

query: Same lookup for "CCOc1ccc(-n2c(SCC(=O)N(C)Cc3ccccc3)nc3sc4c(c3c2=O)CCN(C)C4)cc1" , please.
result: 47.9

query: Same lookup for "CCOc1ccc(-n2c(SCC(=O)N3CCC(Cc4ccccc4)CC3)nc3sc4c(c3c2=O)CCN(C(C)=O)C4)cc1" , please.
result: 15.0

query: Same lookup for "CCOc1ccc(-n2c(SCC(=O)NCc3ccccc3)nc3sc4c(c3c2=O)CCN(C(C)=O)C4)cc1" , please.
result: 70.0

query: Same lookup for "CCOc1ccc(-n2c(SCC(=O)N3CCN(c4ccccc4)CC3)nc3sc4c(c3c2=O)CCN(C(C)=O)C4)cc1" , please.
result: 28.3

query: Same lookup for "CCOc1ccc(-n2c(SCC(=O)Nc3ccc(Cl)cc3)nc3sc4c(c3c2=O)CCN(C(C)=O)C4)cc1" , please.
result: 72.0

query: Same lookup for "CCOc1ccc(-n2c(SCC(=O)NCc3ccc(Cl)cc3)nc3sc4c(c3c2=O)CCN(C)C4)cc1" , please.
result: 16.1

query: Same lookup for "CCOc1ccc(-n2c(SCC(=O)Nc3ccc(OC)c(OC)c3)nc3sc4c(c3c2=O)CCN(C)C4)cc1" , please.
result: 20.3

query: Same lookup for "CCOc1ccc(-n2c(SCC(=O)NCc3ccc(C)cc3)nc3sc4c(c3c2=O)CCN(C(C)=O)C4)cc1" , please.
result: 92.7

Measured values drawn from paper PMC7996082 for this set.
